- experiment description: NCI Yeast Anticancer Drug Screen. Data for the rad50 strain (AID 155);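 note: 0% = growth of vehicle-only cultures of the same strain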
- details: S. cerevisiae rad50 strain growth inhibition; at 5.0 µM (retest, dose inferred, filed as 0.5)
About 79,000 compounds went through this panel and 15% of them were active in at least one assay; those are over-represented in the sample as a whole. The source made the active and inactive calls. Cut-off read from the data, not from the text of the source: active = growth inhibition above about 70%; inactive = the rest.
Entry note: the call must match one of true = active, false = inactive

A selection of reference data follows.
- molecule: "CCCCC(=O)c1nc(N(CC2CCCCC2)C(=O)NC)sc1N"
  category label: "false"
- molecule: "CN(C)C(=S)SN(C)C(=O)Nc1ccccc1"
  category label: "false"
- molecule: "COc1ccc2c(c1)OC(c1ccccc1O)CC2=O (stereo unspecified)"
  category label: "false"

(Q) How was "COC(=O)c1nnn(-c2ccc(Cl)cc2Cl)c1C(=O)c1ccc(Cl)c(Cl)c1" classified in this test?
(A) false

(Q) How was "Cc1ccc(C(=O)C(CN(C)C)CN(C)C)cc1" classified in this test?
(A) false

(Q) How was "CC(=O)Oc1ccc2cc(-c3ccccc3OC(C)=O)c(=O)oc2c1" classified in this test?
(A) false

(Q) How was "CNC(=O)OCc1c(COC(=O)NC)c(-c2ccc(Cl)c(Cl)c2)n2c1Cc1ccccc1C2" classified in this test?
(A) false

(Q) How was CC(c1ccc2ccccc2c1)c1c(F)cccc1C(=O)O (stereo unspecified) classified in this test?
(A) false

(Q) How was "O=C1c2ccccc2C(=O)c2sc(Nc3ccccc3C(F)(F)F)nc21" classified in this test?
(A) true

(Q) How was "O=C(Nc1ccccc1)ON=C1CCCCC1" classified in this test?
(A) false

(Q) How was "CC(C)(C)OC(=O)C(N(Cc1ccccc1)Cc1ccccc1)N(Cc1ccccc1)Cc1ccccc1" classified in this test?
(A) false

###

- experiment description: NCI Yeast Anticancer Drug Screen. Data for the rad50 strain (AID 155);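 note: 0% = growth of vehicle-only cultures of the same strain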
- details: S. cerevisiae rad50 strain growth inhibition; at 5.0 µM (retest, dose inferred, filed as 0.5); hits give high values
About 79,000 compounds went through this panel and 15% of them were active in at least one assay; those are over-represented in the sample as a whole.
assay metric: growth inhibition (%)
Entry rule: numbers only, all in %.

- compound: "Oc1cc(Br)cc2cc(Br)cnc12"
  data value: 92
- compound: "Nc1nnc(-c2cc(=O)c3cc(Cl)ccc3o2)s1"
  data value: -1
- compound: "CCCCCCc1ccc(O)cc1O"
  data value: 5

(Q) Any idea what growth inhibition was measured for CSC1=Nc2ccccc2SC(c2ccccc2)C1c1ccccc1 (stereo not given) ?
(A) 4

(Q) Any idea what growth inhibition was measured for "O=[N+]([O-])c1cccc(Cl)c1C(Nc1nncs1)Nc1nncs1" ?
(A) 7

###

- experiment description: NCI Yeast Anticancer Drug Screen. Data for the cln2 rad14 strain (AID 165);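 note: 0% = growth equal to vehicle treated cultures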
- details: S. cerevisiae cln2 rad14 strain, at 5.0 µM (retest, dose inferred, filed as 0.5), hits give high values
The panel holds about 79,000 compounds, 15% with a hit somewhere; the sample as a whole holds those more often.
# growth inhibition listing for each entry below
Entry rule: numbers only, all in %.

Below, each entry is followed by its recorded growth inhibition result.
- compound: "CC(=O)Oc1c(C)cc([N+](=O)[O-])cc1[N+](=O)[O-]"
  data value: 16
- compound: "CC(C)OP(=O)(OC(C)C)/C(=N/Nc1ccc([N+](=O)[O-])cc1)NNC(=O)c1ccccc1"
  data value: -21
- compound: "CC[N+]1(C)CC2CCC(CC2)C1 (stereo not drawn)"
  data value: -4
- compound: "O=C1OC(C2OC(=O)C(=O)C2C(=O)c2ccc(Cl)cc2)C(C(=O)c2ccc(Cl)cc2)C1=O (stereo not drawn)"
  data value: -4
- compound: "CCN(CC)C(=S)n1c(=S)nc(N(CC)CC)sc1=S"
  data value: 39

(Q) Any idea what growth inhibition was measured for COC1CC(OC(=O)c2ccccc2)C(OC(=O)c2ccccc2)C(C)O1 (stereo not drawn) ?
(A) -4

(Q) Any idea what growth inhibition was measured for CC1OC(OP(=O)(OCc2ccccc2)OCc2ccccc2)C(OC(=O)c2ccccc2)C(OC(=O)c2ccccc2)C1I (stereo not drawn) ?
(A) 29

(Q) Any idea what growth inhibition was measured for COC(=O)C1(C)CCCC2(C)C3CCC4CC3(C=C4CO)CCC12 (stereo not drawn) ?
(A) 36

(Q) Any idea what growth inhibition was measured for "O=C1/C(=C/c2ccccc2)CNC/C1=C\c1ccccc1" ?
(A) 10

(Q) Any idea what growth inhibition was measured for "C\C=C/C=C/C=C/C(=O)O" ?
(A) -2

(Q) Any idea what growth inhibition was measured for "S=c1nc(/C=C/c2ccc(Cl)c(Cl)c2)[nH][nH]1" ?
(A) 31

###

- experiment description: NCI Yeast Anticancer Drug Screen. Data for the bub3 strain (AID 167)
- details: S. cerevisiae bub3 mutant strain, at 5.0 µM (retest, dose inferred, filed as 0.5)
Compounds without any hit were thinned out: in the full panel of roughly 79,000, 15% have a hit. The source made the active and inactive calls. Cut-off read from the data, not from the text of the source: active = growth inhibition above about 70%; inactive = the rest.
Entry note: the call must match one of True = active, False = inactive

A selection of reference data follows.
- molecule: "Cc1ccccc1NC(=O)C(=O)C(C#N)c1c(Cl)cccc1Cl (stereo not given)"
  category label: "False"
- molecule: "NCCC1=CCCCC1"
  category label: "False"
- molecule: "Cc1ccc(S(=O)(=O)N/N=c2\\c(C)c(C3=NS(=O)(=O)c4cc(S(N)(=O)=O)c(Cl)cc4N3)oc3c(Cl)cc(Cl)cc23)cc1"
  category label: "False"
- molecule: "COC1(OC)C2(Cl)C(Cl)=C(Cl)C1(Cl)C1C2C2CC1(C(=O)O)c1ccccc12 (stereo not given)"
  category label: "False"
- molecule: "CCOc1cc2c(cc1O)CC[C@@H]1[C@@H]2CC[C@]2(C)[C@@H](O)CC[C@@H]12"
  category label: "False"
- molecule: "Cc1ccc(C(=O)OCC(C)C)cc1N=NN(C)C"
  category label: "False"

(Q) How was "COC(=O)NNc1c([N+](=O)[O-])cnn(-c2ccccc2)c1=O" classified in this test?
(A) False

(Q) How was "C[n+]1c2ccccc2cc2[nH]c3ccccc3c21" classified in this test?
(A) True

(Q) How was "c1ccc([P+](c2ccccc2)(c2ccccc2)C2c3ccccc3-c3ccccc32)cc1" classified in this test?
(A) False

(Q) How was "COC(=O)c1nnn(-c2cccc(C(F)(F)F)c2)c1C(=O)c1ccc(Cl)c(Cl)c1" classified in this test?
(A) False

###

- experiment description: NCI Yeast Anticancer Drug Screen. Data for the cln2 rad14 strain (AID 165);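 note: 0% = growth equal to vehicle treated cultures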
- details: S. cerevisiae cln2 rad14 strain, at 50.0 µM, hits give high values
The panel holds about 79,000 compounds, 15% with a hit somewhere; the sample as a whole holds those more often. The source made the active and inactive calls. No stated cut-off is given here; in the data, active means growth inhibition above about 70%; inactive means the rest.
assay metric: growth inhibition

Below, each entry is followed by its recorded growth inhibition result.
- molecule: "Cc1ccc(C(=O)CC(O)(C(F)(F)F)C(F)(F)F)cc1[N+](=O)[O-]"
  assay metric: "growth inhibition"
  data value: "89.5% (active)"
- molecule: "O=C(c1ccccc1)N1CCCCC1"
  assay metric: "growth inhibition"
  data value: "48% (inactive)"
- molecule: "O=C(O)CCC(=O)NCCNC(=O)CC(=O)O"
  assay metric: "growth inhibition"
  data value: "36.3% (inactive)"
- molecule: "Cc1nn(C(=O)c2ccccc2O)c2c1C(c1ccc([N+](=O)[O-])cc1)SC(N)=N2 (stereo unspecified)"
  assay metric: "growth inhibition"
  data value: "12.3% (inactive)"
- molecule: "CC1=CCCc2c1cc1ccc3cccc4ccc2c1c34"
  assay metric: "growth inhibition"
  data value: "28.1% (inactive)"

(Q) Any idea what growth inhibition was measured for O=C1C2=C(c3ccccc31)C(c1ccccc1Cl)NC(=S)N2 (stereo unspecified) ?
(A) 63.4% (inactive)

(Q) Any idea what growth inhibition was measured for "O=[N+]([O-])c1ccc(/C=C/[n+]2ccc3ccccc3c2)o1" ?
(A) 96.2% (active)

(Q) Any idea what growth inhibition was measured for "O=C(Nc1cccc(NC(=O)c2cc(=O)c3ccccc3o2)n1)c1cc(=O)c2ccccc2o1" ?
(A) 24.2% (inactive)

(Q) Any idea what growth inhibition was measured for "O=P1(O)c2ccccc2CS(=O)(=O)Cc2ccccc21" ?
(A) -13.2% (inactive)

(Q) Any idea what growth inhibition was measured for "COc1ccc(C2=CC(=O)C=CC2=O)cc1" ?
(A) 82.2% (active)

(Q) Any idea what growth inhibition was measured for "O=C(CC(O)(C(F)(F)Cl)C(F)(F)Cl)CC(O)(C(F)(F)Cl)C(F)(F)Cl" ?
(A) 99.3% (active)

###

- experiment description: NCI Yeast Anticancer Drug Screen. Data for the cln2 rad14 strain (AID 165);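 note: 0% = growth equal to vehicle treated cultures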
- details: S. cerevisiae cln2 rad14 strain, at 5.0 µM (retest, dose inferred, filed as 0.5), hits give high values
Compounds without any hit were thinned out: in the full panel of roughly 79,000, 15% have a hit.
# growth inhibition listing for each entry below
Entry rule: numbers only, all in %.

Below, each entry is followed by its recorded growth inhibition result.
- molecule: "N#CC(C#N)C(c1ccccc1)c1ccccc1"
  growth inhibition / %: -3
- molecule: "CCC(=O)Oc1ccc(-c2ccccc2)cc1Cl"
  growth inhibition / %: -2
- molecule: "Cc1cc(O)n(Cc2ccccc2)c(=O)c1"
  growth inhibition / %: -60

(Q) Any idea what growth inhibition was measured for O=C1OC(=O)C2C1C1C(c3ccccc3)=C(c3ccccc3)C2(O)C2C(=O)OC(=O)C12 (stereo unspecified) ?
(A) 17

(Q) Any idea what growth inhibition was measured for "COc1ccc2c(c1)S(=O)(=O)C(c1ccccc1)=CC2=O" ?
(A) 66

(Q) Any idea what growth inhibition was measured for "COc1ccc(N=Nc2ccc3oc(=O)c(C(=O)Nc4ccccc4C)cc3c2)cc1" ?
(A) 1

Cited source: PubChem BioAssay (NCI)
